Values compiled from the PolyMetriX glass transition set.

Items are presented alongside their recorded glass transition temperature.

compound	glass transition temperature (°C)
*O[Si](C)(C)CCCCCCOC(=O)C(C)Oc1ccc(OC(=O)c2ccc(-c3ccc(OCCCCCCCCCC[Si](*)(C)C)cc3)cc2)cc1[N+](=O)[O-] (repeat unit)	20.00
*CCCCCCCNC(=O)CCCCCC(=O)N* (repeat unit)	55.00
*C(=O)c1ccc2c(c1)C(=O)N(c1cccc(C(=O)c3cccc(N4C(=O)c5ccc(*)cc5C4=O)c3)c1)C2=O (repeat unit)	242.00
*CCCCCCCC(=O)OCC1COC(*)O1 (repeat unit)	-23.00
*c1cccc(C(=O)Nc2ccc(Oc3ccc(Oc4ccc(Oc5ccc(NC(=O)c6cccc(N7C(=O)c8ccc(-c9cccc%10c9C(=O)N(*)C%10=O)cc8C7=O)c6)cc5)cc4)cc3)cc2)c1 (repeat unit)	260.00
*Oc1ccc(OC(=O)c2ccc(C(*)=O)cc2Sc2ccc(Cl)cc2)cc1 (repeat unit)	140.00
*c1ccc(Oc2ccc(-c3ccc(Oc4ccc(N5C(=O)c6ccc(Oc7ccc8ccc(Oc9ccc%10c(c9)C(=O)N(*)C%10=O)cc8c7)cc6C5=O)cc4)cc3)cc2)cc1 (repeat unit)	231.00
*CC(*)C(=O)OCCCCCCCCCCCCCCCCCC (repeat unit) [Poly(octadecyl acrylate)]	-2.33
*N=P(Cl)(N=P(/N=S(/*)Oc1cccc(-c2ccccc2)c1)(Oc1cccc(-c2ccccc2)c1)Oc1cccc(-c2ccccc2)c1)Oc1cccc(-c2ccccc2)c1 (repeat unit)	32.00
*c1ccc(Nc2ccc(Nc3ccc(S(*)(=O)=O)cc3)cc2)cc1 (repeat unit)	145.00
*c1ccc(-c2sc(-c3ccc(-n4c(=O)c5cc6c(=O)n(*)c(=O)c6cc5c4=O)cc3)c(-c3ccccc3)c2-c2ccccc2)cc1 (repeat unit)	460.00
*CC(*)c1ccc(OP2(OCCOCCOCCOC)=NP(OCCOCCOCCOC)(OCCOCCOCCOC)=NP(OCCOCCOCCOC)(OCCOCCOCCOC)=N2)cc1 (repeat unit)	-46.00
*Oc1ccc(Oc2ccc(/C=N/CCCCCCCCCCCC/N=C/c3ccc(*)cc3)cc2)cc1 (repeat unit)	118.00
*CC1CC(*)C(=O)OC1=O (repeat unit)	140.00
